Test system: DMS-114 (Small Cell Lung Carcinoma);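 further: after 72 h of two-drug dosing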
Test: Bliss excess, mean over the matrix (fraction); higher = more synergy
# maps each entry to its Bliss excess

# compound, Bliss excess
rows = [
    ("COc1nnc2ccc(N3CCC(c4ccc(OCCN5CCN(C)C(=O)[C@H]5C)cc4)CC3)nn12 [AZD5153] + CC1(C)CCC(CN2CCN(c3ccc(C(=O)NS(=O)(=O)c4ccc(NCC5CCOCC5)c([N+](=O)[O-])c4)c(Oc4cnc5[nH]ccc5c4)c3)CC2)=C(c2ccc(Cl)cc2)C1 [Venetoclax] (first compound max 1 µM, 7x7, partner max 1 µM)", -0.0732),
    ("C[C@@H]1COCCN1c1cc(C2([S@](C)(=N)=O)CC2)nc(-c2ccnc3[nH]ccc23)n1 [AZD6738] + C1CC(C1)(C(=O)[O-])C(=O)[O-].N.N.[Pt+2] [Carboplatin] (first compound max 10 µM, 7x7, partner max 10 µM)", -0.095),
    ("Cc1c2c(nn1C)CSCc1cc(n(C)n1)CSc1cc(c3ccccc3c1)OCCCc1c(C(=O)O)n(C)c3c-2c(Cl)ccc13 [AZD5991] + CN(C)CCCOc1ccc(-c2ccc3ncc4c(c3c2)n(C2CCOCC2)c(=O)n4C)cn1 [AZD0156] (first compound max 1 µM, 7x7, partner max 1 µM)", 0.003),
    ("CC1(C)CCC(CN2CCN(c3ccc(C(=O)NS(=O)(=O)c4ccc(NCC5CCOCC5)c([N+](=O)[O-])c4)c(Oc4cnc5[nH]ccc5c4)c3)CC2)=C(c2ccc(Cl)cc2)C1 [Venetoclax] + Cn1cnc2c(F)c(Nc3ccc(Br)cc3Cl)c(C(=O)NOCCO)cc21 [Selumetinib] (first compound max 1 µM, 7x7, partner max 3 µM)", -0.0371),
    ("O=C(c1cc(Cc2n[nH]c(=O)c3ccccc23)ccc1F)N1CCN(C(=O)C2CC2)CC1 [Olaparib] + CN(CC[C@H](CSC1=CC=CC=C1)NC2=C(C=C(C=C2)S(=O)(=O)NC(=O)C3=CC=C(C=C3)N4CCC(CC4)[C@H](C5=CC=CC=C5C6=CC=C(C=C6)Cl)O)S(=O)(=O)C(F)(F)F)CCO [AZD4320] (first compound max 10 µM, 7x7, partner max 1 µM)", -0.0971),
    ("C=CCn1c(=O)c2cnc(Nc3ccc(N4CCN(C)CC4)cc3)nc2n1-c1cccc(C(C)(C)O)n1 [AZD1775] + C1CN(CCC1(C(=O)N[C@@H](CCO)C2=CC=C(C=C2)Cl)N)C3=NC=NC4=C3C=CN4 [Capivasertib] (first compound max 3 µM, partner max 3 µM)", -0.0132),
]
